All figures here come from ChEMBL document CHEMBL4765252.

assay: Metabolic stability of the compound in mouse liver microsomes assessed as parent compound remaining […]; assay type: ADME, Microsome; settings: read-out: Stabilty
# reported remaining at 0.5 h; entries follow
Answer format: numeric, % implied, no suffix.

If you can, please state the reported remaining at 0.5 h value of `O=c1cc(-c2ccc(O)cc2)oc2ccc(O)c(CN3CCC3)c12` .
96

API: the following record is the query input.
Please give the measured remaining at 0.5 h for this molecule: `O=c1cc(-c2ccc(O)cc2)oc2ccc(O)c(CN3CCCC3)c12`
102

----------
assay: Oral bioavailability in BALB/c mouse at 100 mg/kg; format: ADME, organism-based; conditions: in vivo
OBSERVED_PROPERTY: bioavailability (%)
Express it in %; write the number only.

Look at this molecule and give its reported bioavailability. `O=c1cc(-c2ccc(O)cc2)oc2ccc(O)c(CN3CCC3)c12`
20.5

----------
assay: AUC (0 to t) in BALB/c mouse at 5 mg/kg, iv administered as single dose; type: ADME, organism-based; set-up: dose 5 mg/kg; settings: in vivo
OBSERVED_PROPERTY: AUC(0-t)

Please give the measured AUC(0-t) for this compound: `O=c1cc(-c2ccc(O)cc2)oc2ccc(O)c(CN3CCC3)c12`
1.03 µg·h/mL

----------
experiment: AUC (0 to infinity) in BALB/c mouse at 5 mg/kg, iv administered as single dose; type: ADME, organism-based; set-up: time infinity, route intravenous, dose 5 mg/kg; settings: in vivo
OBSERVED_PROPERTY: AUC(0-inf) (ng·h/mL)
Use ng·h/mL as the unit, but write only the number.

Data request, read-out AUC(0-inf), for `O=c1cc(-c2ccc(O)cc2)oc2ccc(O)c(CN3CCC3)c12`
1040

----------
assay: Elimination half life in BALB/c mouse at 5 mg/kg, iv administered as single dose; assay type: ADME, organism-based; conditions: in vivo, read-out: beta t1/2 (converted)
OBSERVED_PROPERTY: half-life (h)
Expressed in h, but write only the number.

Quick one: half-life for `O=c1cc(-c2ccc(O)cc2)oc2ccc(O)c(CN3CCC3)c12` ?
1.28

----------
test: AUC (0 to infinity) in BALB/c mouse at 100 mg/kg, po administered as single dose; assay type: ADME, organism-based; design: time infinity, route oral, dose 100 mg/kg; conditions: in vivo
OBSERVED_PROPERTY: AUC(0-inf) (ng·h/mL)
# number only, unit ng·h/mL dropped from output

Requested read-out: AUC(0-inf). Entry: `O=c1cc(-c2ccc(O)cc2)oc2ccc(O)c(CN3CCC3)c12`
4290

----------
test: MRT (0 to infinity) in BALB/c mouse at 100 mg/kg, po administered as single dose; format: ADME, organism-based; conditions: in vivo
OBSERVED_PROPERTY: MRT inf (h)
A number alone suffices; assume h.

What value of MRT inf has been reported for the following compound? `O=c1cc(-c2ccc(O)cc2)oc2ccc(O)c(CN3CCC3)c12`
1.82
